Source: PubChem BioAssay AID743100

- test-target: Muscarinic acetylcholine receptor M5 (Homo sapiens)
- experiment-notes: M5 muscarinic receptor positive allosteric modulators, cell-based, single concentration, CHO-K1 hM5, calcium flux (AID 743100)
- experimental-context: CHO-K1 hM5, Fluo-4 calcium flux, ACh EC20, hits give high values; at 10 µM unless noted
Activity calls are given as the source filed them.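 Rule for the calls: active = calcium response above 60% of the acetylcholine maximum at human M5, as a positive modulator; inactive = the rest.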
observable: % ACh max response

Below, each entry is followed by its recorded % ACh max response result.
COc1ccc(S(=O)(=O)N2CCC(C(=O)N(C)Cc3ccccc3)CC2)cc1 :: 64.5% [at 30 µM] (active)
CCN(CC1CCN(S(=O)(=O)c2ccc(OC)cc2)CC1)C(=O)c1ccccc1 :: 15.2% (inactive)

Let's switch to this compound now.
Recorded result, CCN(CC1CCN(S(=O)(=O)c2ccc(OC(F)(F)F)cc2)CC1)C(=O)c1ccccc1 , % ACh max response: 10.5% (inactive)

----------
- test-target: Muscarinic acetylcholine receptor M5 (Homo sapiens)
- experiment-notes: M5 muscarinic receptor positive allosteric modulators, cell-based, single concentration, CHO-K1 hM5, calcium flux (AID 743100)
- experimental-context: CHO-K1 hM5, Fluo-4 calcium flux, ACh EC20; at 10 µM unless noted
Calls of active or inactive are those of the source.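 Rule for the calls: active = calcium response above 60% of the acetylcholine maximum at human M5, as a positive modulator; inactive = the rest.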
Outcome field: choose from active, inactive

Take a look at these entries with their results.
CCN(Cc1ccccc1)C(=O)C1CCN(S(=O)(=O)c2cccc(C(F)(F)F)c2)CC1 :: active
CCN(Cc1ccccc1)C(=O)C1CCN(S(=O)(=O)c2cnc[nH]2)CC1 :: inactive
CCN(Cc1ccccc1)C(=O)C1CCN(S(=O)(=O)c2ccccc2OC(F)(F)F)CC1 :: inactive
CCN(Cc1ccccc1)C(=O)C1CCN(C(=O)c2ccc(OC)cc2)CC1 :: inactive
CCN(Cc1cccnc1)C(=O)C1CCN(S(=O)(=O)c2ccc3cn[nH]c3c2)CC1 :: inactive
CCN(Cc1ccccc1)C(=O)C1CCN(S(=O)(=O)c2ccccc2C)CC1 :: inactive
CCN(Cc1ccccc1)C(=O)C1CCN(S(=O)(=O)c2ccc(OC(F)(F)F)cc2)CC1 :: active
CCN(Cc1ccccc1OC)C(=O)C1CCN(S(=O)(=O)c2ccc3cn[nH]c3c2)CC1 :: active
CCN(Cc1ccccc1)C(=O)C1CCN(S(=O)(=O)c2ccc3occc3c2)CC1 :: active
CCN(Cc1ccccc1Cl)C(=O)C1CCN(S(=O)(=O)c2ccc3cn[nH]c3c2)CC1 :: active

Prompt: What did the test return for CCN(Cc1ccccc1C(F)(F)F)C(=O)C1(F)CCN(S(=O)(=O)c2ccc3occc3c2)CC1 ?
Response: inactive

Prompt: What did the test return for CCN(Cc1ccccc1)C(=O)C1CCN(S(=O)(=O)c2cccnc2Cl)CC1 ?
Response: inactive

Prompt: What did the test return for CCN(Cc1ccccc1)C(=O)C1CCN(S(=O)(=O)CC(C)C)CC1 ?
Response: inactive

----------
- test-target: Muscarinic acetylcholine receptor M5 (Homo sapiens) (UniProt P08912)
- Sequence (P08912 whole entry, looked up): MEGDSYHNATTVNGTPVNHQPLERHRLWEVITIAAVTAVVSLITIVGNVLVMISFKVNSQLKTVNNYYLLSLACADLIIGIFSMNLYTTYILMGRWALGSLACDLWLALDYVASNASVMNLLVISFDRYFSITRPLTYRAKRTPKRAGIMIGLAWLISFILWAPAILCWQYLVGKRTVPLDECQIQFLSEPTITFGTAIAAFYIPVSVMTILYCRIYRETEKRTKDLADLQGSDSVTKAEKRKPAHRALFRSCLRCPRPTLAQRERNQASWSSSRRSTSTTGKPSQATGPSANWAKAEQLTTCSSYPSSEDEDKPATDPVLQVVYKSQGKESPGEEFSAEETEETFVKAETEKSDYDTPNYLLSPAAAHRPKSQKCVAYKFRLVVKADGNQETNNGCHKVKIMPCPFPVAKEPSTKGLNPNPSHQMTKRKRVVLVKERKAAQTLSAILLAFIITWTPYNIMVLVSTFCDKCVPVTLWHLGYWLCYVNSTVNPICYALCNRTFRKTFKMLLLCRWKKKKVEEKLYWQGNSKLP
- experiment-notes: M5 muscarinic receptor positive allosteric modulators, cell-based, single concentration, CHO-K1 hM5, calcium flux (AID 743100)
- experimental-context: CHO-K1 hM5, Fluo-4 calcium flux, ACh EC20; at 10 µM unless noted
Active and inactive are the calls of the source.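 How the source made its calls: active means calcium response above 60% of the acetylcholine maximum at human M5, as a positive modulator; inactive means the rest.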
Outcome field: choose from active, inactive

CCN(Cc1ccccc1)C(=O)C1CCN(S(=O)(=O)c2ccccc2)CC1 :: active
CCN(Cc1ccccc1)C(=O)C1CCN(S(=O)(=O)c2cccc(OC(F)F)c2)CC1 :: active

Prompt: What did the test return for CN(C)C(=O)C1(Cc2ccccc2)CCN(S(=O)(=O)c2ccc3occc3c2)CC1 ?
Response: inactive

Prompt: What did the test return for CCN(Cc1ccc(OC(F)(F)F)cc1)C(=O)C1CCN(S(=O)(=O)c2ccc3cn[nH]c3c2)CC1 ?
Response: inactive
